Values from patent US20230143604A1

Molecular target: T1, full-length human GIPR with an N-terminal FLAG tag, overexpressed on HEK-293T cells (human, UniProt P48546 22-466)
T1 sequence (looked up): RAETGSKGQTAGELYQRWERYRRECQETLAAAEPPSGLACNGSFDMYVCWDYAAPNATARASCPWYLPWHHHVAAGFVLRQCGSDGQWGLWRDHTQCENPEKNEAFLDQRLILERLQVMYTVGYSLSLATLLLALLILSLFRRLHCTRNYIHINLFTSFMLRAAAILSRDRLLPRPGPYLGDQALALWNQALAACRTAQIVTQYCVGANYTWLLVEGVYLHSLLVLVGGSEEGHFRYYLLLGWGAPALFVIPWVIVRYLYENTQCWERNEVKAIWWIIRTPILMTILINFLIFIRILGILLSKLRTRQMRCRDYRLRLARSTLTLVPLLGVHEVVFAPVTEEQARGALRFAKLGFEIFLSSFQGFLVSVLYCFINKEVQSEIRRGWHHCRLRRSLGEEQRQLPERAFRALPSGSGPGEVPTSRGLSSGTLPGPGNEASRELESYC
Experiment: cell-based or functional assay
Starred links: 1 amine or outer side, 2 acyl side, 3 side chain; linkers in the order of their positions; H or OH if unused. Non-standard residues stand in square brackets, D forms with d. Groups on a side chain read outwards from the residue. No end group written: not given here. *: point of attachment. C18 diacid = O=C(O)CCCCCCCCCCCCCCCCC(=O)*; γGlu = O=C(O)[C@H](CCC(=O)[*:2])N[*:1]; NMeY = CN[C@@H](Cc1ccc(O)cc1)C(=O)O; AEEA = NCCOCCOCC(=O)O; E∗ = not defined here; K∗ = not defined here; Aib = CC(C)(N)C(=O)O
Label condition met when Human GIPR cAMP EC50, HEK293T is strictly below 0.4 pM; at or above that, label condition not met.

Task item: Here's an entry: Y[Aib]EGTFISDYSIAK([AEEA-AEEA-γGlu-C18 diacid])DKIHQQDFVNWLLAQKGKKNDWKHNITQ-OH [Compound No. 187] . Is its Human GIPR cAMP EC50, HEK293T below 0.4 pM?
Reply: condition not met

Task item: Here's an entry: YXEGTFISDYSIAXDKAXQQDFVEWLLAQRG (N-terminus H; Aib at 2, 14; Km at 18 = Lys(2OEGgE-C18DA); C-terminus OH) [Compound No. 164] . Is its Human GIPR cAMP EC50, HEK293T below 0.4 pM?
Reply: condition met

Task item: Here's an entry: Me-Y[Aib]EGTFISDYSIALDRAAQQK([AEEA-AEEA-γGlu-γGlu-C18 diacid])FVNWLLAQSPG-OH [Compound No. 178] . Is its Human GIPR cAMP EC50, HEK293T below 0.4 pM?
Reply: condition not met

Task item: Here's an entry: [NMeY][Aib]EGTFISDYSI[Aib]LDRAAQ[Aib]K([AEEA-AEEA-γGlu-γGlu-C18 diacid])FVNWLLAQRG-OH [Compound No. 214] . Is its Human GIPR cAMP EC50, HEK293T below 0.4 pM?
Reply: condition not met

Task item: Here's an entry: Me-Y[Aib]EGTFISDYSIALDRIAQQK([AEEA-AEEA-γGlu-γGlu-C18 diacid])FVNWLLAQSPSSGAPPPS-OH [Compound No. 177] . Is its Human GIPR cAMP EC50, HEK293T below 0.4 pM?
Reply: condition met

Task item: Here's an entry: Me-Y[Aib]EGTFISDYSIALDR[Aib]HQ[E∗]NF[K∗]NWLLAQK([AEEA-AEEA-γGlu-C18 diacid])PSSGAPPPS-NH2 (not fully specified (residue 1); reading uncertain; also: E* at 20 and K* at 23 marked, meaning not given here) [Compound No. 182] . Is its Human GIPR cAMP EC50, HEK293T below 0.4 pM?
Reply: condition not met

Task item: Here's an entry: [NMeY][Aib]EGTFISDYSIALDRAAQAK([AEEA-AEEA-γGlu-γGlu-C18 diacid])FVNWLLAQRG-OH [Compound No. 216] . Is its Human GIPR cAMP EC50, HEK293T below 0.4 pM?
Reply: condition not met
